# assay-system: recombinant human Bcl-2 D103Y protein (Homo sapiens (Human), UniProt P10415, D103Y)
# method-summary: Bcl-2-D103Y Biochemical Assay (TR-FRET)
# experimental-parameters: TR-FRET, FITC labeled Bak peptide
pIC50: −log10 of the molar value.

# compound, assay-system, pIC50
rows = [
    ("COc1cc(CN2CCN(C3CC4(C3)CN(c3ccc(C(=O)NS(=O)(=O)c5ccc(NC[C@H]6CC[C@](C)(O)CC6)c([N+](=O)[O-])c5)c(Oc5cnc6[nH]cc(F)c6c5)c3)C4)[C@H](c3ccccc3C(C)C)C2)ccc1C1CCOCC1", "recombinant human Bcl-2 D103Y protein (Homo sapiens (Human), UniProt P10415, D103Y)", 9.40),
    ("COc1ccc(CN2CCN(C3CC4(CCN(c5ccc(C(=O)NS(=O)(=O)c6ccc(NC[C@@H]7CN(C8COC8)CCO7)c([N+](=O)[O-])c6)c(Oc6cnc7[nH]ccc7c6)c5)CC4)C3)[C@@H](c3ccccc3C(C)C)C2)cc1 (single isomer, unassigned)", "recombinant human Bcl-2 D103Y protein (Homo sapiens (Human), UniProt P10415, D103Y)", 10.31),
    ("CC(C)c1ccccc1C1CN(CC23CC(C2)C3)CCN1C1CC2(CCN(c3ccc(C(=O)NS(=O)(=O)c4ccc(NC[C@H]5CC[C@](C)(O)CC5)c([N+](=O)[O-])c4)c(Oc4cnc5[nH]ccc5c4)c3)CC2)C1 (stereo partly drawn)", "recombinant human Bcl-2 D103Y protein (Homo sapiens (Human), UniProt P10415, D103Y)", 9.37),
]

----------
This listing pairs molecules with measured IC50.
# Test system: RS4;11 (BCL-2 dependent acute lymphoblastic leukemia cell line)
# method-summary: RS4;11 Cell Proliferation Assay
# Format: cell-based
# experimental-parameters: Homo sapiens, RS4-11, RS4;11 cells, read-out: Cellular proliferation assay (IC50, nM) RS4
value-type: IC50 (nM)

# molecule, value-unit, result
data = [
    ("COc1cc(CN2CCN(C3CC4(CCN(c5ccc(C(=O)NS(=O)(=O)c6ccc(NC[C@H]7CC[C@](C)(O)CC7)c([N+](=O)[O-])c6)c(Oc6cnc7[nH]ccc7c6)c5)CC4)C3)C(c3ccccc3C(C)C)C2)cnc1OC (some centres unmarked)", "nM", 0.39),
    ("COc1ccccc1CN1CCN(C2CC3(CCN(c4ccc(C(=O)NS(=O)(=O)c5ccc(NC[C@H]6CC[C@](C)(O)CC6)c([N+](=O)[O-])c5)c(Oc5cnc6[nH]ccc6c5)c4)CC3)C2)C(c2ccccc2C(C)C)C1 (some centres unmarked)", "nM", 1),
    ("CC(C)c1ccccc1C1CN(Cc2ccccc2)CCN1C1CC2(CCN(c3ccc(C(=O)NS(=O)(=O)c4ccc(NC[C@H]5CC[C@](C)(O)CC5)c([N+](=O)[O-])c4)c(Oc4cnc5[nH]ccc5c4)c3)CC2)C1 (some centres unmarked)", "nM", 0.39),
    ("COc1cc(CN2CCN(C3CC4(C3)CN(c3ccc(C(=O)NS(=O)(=O)c5ccc(NC[C@H]6CC[C@](C)(O)CC6)c([N+](=O)[O-])c5)c(Oc5cnc6[nH]cc(F)c6c5)c3)C4)[C@H](c3ccccc3C(C)C)C2)ccc1Cl", "nM", 0.21),
    ("COc1cc(CN2CCN(C3CC4(CCN(c5ccc(C(=O)NS(=O)(=O)c6ccc(NC[C@H]7CC[C@](C)(O)CC7)c([N+](=O)[O-])c6)c(Oc6cnc7[nH]ccc7c6)c5)CC4)C3)[C@H](c3ccccc3C(C)C)C2)ccc1Cl", "nM", 0.15),
    ("COc1cc(CN2CCN(C3CC4(C3)CN(c3ccc(C(=O)NS(=O)(=O)c5ccc(NC[C@H]6CC[C@](C)(O)CC6)c([N+](=O)[O-])c5)c(Oc5cnc6[nH]ccc6c5)c3)C4)[C@H](c3ccccc3C(C)C)C2)cc2ccoc12", "nM", 0.11),
    ("COc1ccc(CN2CCN(C3CC4(CCN(c5ccc(C(=O)NS(=O)(=O)c6ccc(NC[C@H]7CC[C@](C)(O)CC7)c([N+](=O)[O-])c6)c(Oc6cnc7[nH]ccc7c6)c5)CC4)C3)C(c3ccccc3CN3CCOCC3)C2)cc1 (some centres unmarked)", "nM", 77.4),
    ("COc1cc(CN2CCN(C3CC4(CCN(c5ccc(C(=O)NS(=O)(=O)c6ccc(NC[C@H]7CC[C@](C)(O)CC7)c([N+](=O)[O-])c6)c(Oc6cnc7[nH]ccc7c6)c5)CC4)C3)C(c3ccccc3C(C)C)C2)cc(OC)c1OC (some centres unmarked)", "nM", 0.35),
    ("COc1ccc(CN2CCN(C3CC4(C3)CN(c3ccc(C(=O)NS(=O)(=O)c5ccc(NC[C@H]6CC[C@](C)(O)CC6)c([N+](=O)[O-])c5)c(Oc5cnc6[nH]cc(F)c6c5)c3)C4)[C@H](c3ccccc3C(C)C)C2)cc1OC1CC1", "nM", 0.13),
    ("CC(C)c1ccccc1[C@@H]1CN(Cc2ccc(F)c(F)c2)CCN1C1CC2(C1)CN(c1ccc(C(=O)NS(=O)(=O)c3ccc(NC[C@H]4CC[C@](C)(O)CC4)c([N+](=O)[O-])c3)c(Oc3cnc4[nH]cc(F)c4c3)c1)C2", "nM", 0.12),
    ("CC(C)c1ccccc1[C@@H]1CN(Cc2ccc(F)cc2)CCN1C1CC2(CCN(c3ccc(C(=O)NS(=O)(=O)c4ccc(NC[C@H]5CC[C@](C)(O)CC5)c([N+](=O)[O-])c4)c(Oc4cnc5[nH]ccc5c4)c3)CC2)C1 (single isomer, unassigned) [Example 28a]", "nM", 0.21),
]

----------
This listing pairs molecules with measured microsomal CLint at 1 μM.
# method-summary: Metabolic Stability Study, liver microsome incubation (mouse)
# Format: in vitro ADME
# experimental-parameters: mouse liver microsomes 0.5 mg/mL, 1 μM compound, NADPH; read-out: CLint (μL × min^−1 × mg^−1) mouse

# molecule, value-unit, microsomal CLint at 1 μM
measured = [
    ("CC(C)c1ccccc1C1CN(Cc2cccc(F)c2)CCN1C1CC2(CCN(c3ccc(C(=O)NS(=O)(=O)c4ccc(NC[C@H]5CC[C@](C)(O)CC5)c([N+](=O)[O-])c4)c(Oc4cnc5[nH]ccc5c4)c3)CC2)C1 (stereo partly drawn)", "µL/min/mg", 7.1),
    ("COc1ccc(CN2CCN(C3CC4(CCN(c5ccc(C(=O)NS(=O)(=O)c6ccc(NCC7(F)CCOCC7)c([N+](=O)[O-])c6)c(Oc6cnc7[nH]ccc7c6)c5)CC4)C3)[C@H](c3ccccc3C(C)C)C2)cc1 (single isomer, unassigned)", "µL/min/mg", 6.8),
    ("COc1ccc(CN2CCN(C3CC4(C3)CN(c3ccc(C(=O)NS(=O)(=O)c5ccc(NC[C@H]6CC[C@](C)(O)CC6)c([N+](=O)[O-])c5)c(Oc5cnc6[nH]ccc6c5)c3)C4)[C@H](c3ccccc3C(C)C)C2)cc1OC", "µL/min/mg", 7.1),
]

----------
# assay-system: Recombinant human Bcl-2 protein (Homo sapiens (Human))
# method-summary: Bcl-2 TR-FRET Assay
# Assay type: binding
# experimental-parameters: Bcl-2 wild type, TR-FRET; read-out: Biochemical assay (IC50, nM) Bcl-2 WT
This listing pairs molecules with measured IC50.
value-type: IC50

# smiles, result
rows = [
    ("COc1cc(CN2CCN(C3CC4(CCN(c5ccc(C(=O)NS(=O)(=O)c6ccc(NC[C@H]7CC[C@](C)(O)CC7)c([N+](=O)[O-])c6)c(Oc6cnc7[nH]ccc7c6)c5)CC4)C3)[C@H](c3ccccc3C(C)C)C2)ccc1C1CC1", "0.4 nM"),
    ("CC(C)c1ccccc1[C@@H]1CN(Cc2ccc(N3CCOCC3)cc2)CCN1C1CC2(C1)CN(c1ccc(C(=O)NS(=O)(=O)c3ccc(NC[C@H]4CC[C@](C)(O)CC4)c([N+](=O)[O-])c3)c(Oc3cnc4[nH]cc(F)c4c3)c1)C2", "0.064 nM"),
    ("COc1cc(CN2CCN(C3CC4(C3)CN(c3ccc(C(=O)NS(=O)(=O)c5ccc(NC[C@H]6CC[C@](C)(O)CC6)c([N+](=O)[O-])c5)c(Oc5cnc6[nH]cc(F)c6c5)c3)C4)[C@H](c3ccccc3C(C)C)C2)cc2occc12", "0.7 nM"),
]

----------
This listing pairs compounds with measured log10 of IC50.
# assay-system: recombinant human Bcl-2-G101V protein (Homo sapiens (Human), UniProt P10415, G101V)
# method-summary: Bcl-2-G101V TR-FRET Assay
# Format: binding
# experimental-parameters: Bcl-2 G101V mutant, TR-FRET; read-out: Biochemical assay (IC50, nM) Bcl-2 G101V
value-type: log10 of IC50 (log10 of the value in nM)

# compound, assay-system, result
measured = [
    ("[2H]C([2H])(c1ccc(OC)c(OC)c1)N1CCN(C2CC3(CCN(c4ccc(C(=O)NS(=O)(=O)c5ccc(NC[C@H]6CC[C@](C)(O)CC6)c([N+](=O)[O-])c5)c(Oc5cnc6[nH]ccc6c5)c4)CC3)C2)C(c2ccccc2C(C)C)C1 (some centres unmarked) [Example 193]", "recombinant human Bcl-2-G101V protein (Homo sapiens (Human), UniProt P10415, G101V)", -0.64),
    ("CCc1ccc(CN2CCN(C3CC4(C3)CN(c3ccc(C(=O)NS(=O)(=O)c5ccc(NC[C@H]6CC[C@](C)(O)CC6)c([N+](=O)[O-])c5)c(Oc5cnc6[nH]ccc6c5)c3)C4)[C@H](c3ccccc3C(C)C)C2)cc1OC [Example 271]", "recombinant human Bcl-2-G101V protein (Homo sapiens (Human), UniProt P10415, G101V)", 0.18),
    ("CC(C)c1ccccc1C1CN(Cc2ccc(C#N)cc2)CCN1C1CC2(CCN(c3ccc(C(=O)NS(=O)(=O)c4ccc(NC[C@H]5CC[C@](C)(O)CC5)c([N+](=O)[O-])c4)c(Oc4cnc5[nH]ccc5c4)c3)CC2)C1 (some centres unmarked) [Example 42]", "recombinant human Bcl-2-G101V protein (Homo sapiens (Human), UniProt P10415, G101V)", 0.40),
    ("CC(C)c1ccccc1C1CN(C2CCOCC2)CCN1C1CC2(CCN(c3ccc(C(=O)NS(=O)(=O)c4ccc(NC[C@H]5CC[C@](C)(O)CC5)c([N+](=O)[O-])c4)c(Oc4cnc5[nH]ccc5c4)c3)CC2)C1 (some centres unmarked) [Example 10]", "recombinant human Bcl-2-G101V protein (Homo sapiens (Human), UniProt P10415, G101V)", -0.68),
    ("CC(C)c1ccccc1C1CN(Cc2ccoc2)CCN1C1CC2(CCN(c3ccc(C(=O)NS(=O)(=O)c4ccc(NC[C@H]5CC[C@](C)(O)CC5)c([N+](=O)[O-])c4)c(Oc4cnc5[nH]ccc5c4)c3)CC2)C1 (some centres unmarked) [Example 20]", "recombinant human Bcl-2-G101V protein (Homo sapiens (Human), UniProt P10415, G101V)", -0.24),
]
